Data provenance is ChEMBL document CHEMBL1201862.

- System: UACC-257
- Experimental Details: NCI tumour cell line growth inhibition, 48 h
Active and inactive are the calls of the source. Cut-off read from the data, not from the text of the source: active = GI50 up to about 1.1 µM and inactive = higher.
Attribute Measured: GI50

# input Report GI50 for "O=C(O)Cc1cccc2c(=O)c3ccccc3oc12" please.
# output > 100 µM (inactive)

# input Report GI50 for "CCCCCCCCCCCCCP(=O)(O)O" please.
# output > 100 µM (inactive)

# input Report GI50 for COc1ccc(C2Oc3cc(OC)c(OC)cc3C2CCl)cc1OC (stereo unspecified) please.
# output > 100 µM (inactive)

# input Report GI50 for "COc1ccc(-c2cc(-c3ccccc3)nc(N)c2-c2ccc3ccccc3c2)cc1" please.
# output 1.86 µM (inactive)

# input Report GI50 for CC(C)CCC[C@@H](C)C1CCC2[C@@H]3CCC4CC(CCC=C(c5cc(Cl)c(OC(=O)c6ccccc6)c(C(=O)O)c5)c5cc(Cl)c(OC(=O)c6ccccc6)c(C(=O)O)c5)CC[C@]4(C)C3CC[C@@]21C (stereo partly specified) please.
# output 58.2 µM (inactive)

# input Report GI50 for O=NC1c2cccc3cccc(c23)C1N=O (stereo unspecified) please.
# output 12.9 µM (inactive)

# input Report GI50 for "Cc1ccc2c(c1)nc1n2C(N)=Nc2ccccc2S1" please.
# output > 67.5 µM (inactive)

# input Report GI50 for CCCCCCCCCCCCN(CC(O)C(O)C(OC1OC(CO)C(O)C(O)C1O)C(O)CO)C(=O)CCCCCCCCCCC (stereo unspecified) please.
# output 20.9 µM (inactive)

# input Report GI50 for "CC1=NN(c2nc(N)nc(CC#N)n2)C(C)(C)C1" please.
# output > 100 µM (inactive)

# input Report GI50 for CC(=O)Nc1ccc(C(=O)NN2C(=O)CSC2c2ccc(O)cc2)cc1 (stereo unspecified) please.
# output > 100 µM (inactive)

# input Report GI50 for "c1ccc(C(CCN2CC3CCC(CC3)C2)c2ccccc2)cc1" please.
# output 16.2 µM (inactive)

# input Report GI50 for CCOC(=O)C1(C)CCC(C(C(=O)O)C(=O)O)CC1=O (stereo unspecified) please.
# output > 100 µM (inactive)

# input Report GI50 for N#Cc1ccccc1NC(=O)/C(=N\N)C(C(=O)c1ccncc1)C1OC(=O)c2ccccc21 (stereo unspecified) please.
# output > 100 µM (inactive)

# input Report GI50 for "Cc1n[nH]c(=O)n1/N=C/c1c[nH]c2ccccc12" please.
# output > 100 µM (inactive)

# input Report GI50 for "O=S(=O)(O)c1cc(S(=O)(=O)O)c2c(/N=N/c3cccc4ccccc34)c(O)ccc2c1" please.
# output > 100 µM (inactive)

# input Report GI50 for Nc1ccn(CC(O)c2cc3ccccc3[nH]2)c(=O)n1 (stereo unspecified) please.
# output > 100 µM (inactive)

# input Report GI50 for "Nc1nc(Cl)cc(NCCCCCNc2cc(Cl)nc(N)n2)n1" please.
# output 46.8 µM (inactive)

# input Report GI50 for "CC(=O)NC1=C(NCc2ccc(Cl)cc2)C(=O)c2ccccc2C1=O" please.
# output 6.17 µM (inactive)

# input Report GI50 for CCC12CCCN(Cc3ccccc3)C1c1c(n(C)c3ccccc13)C(CO)C2 (stereo unspecified) please.
# output 48.6 µM (inactive)

# input Report GI50 for "COC(=O)C1(C(=O)OC)CC2=C(S(=O)(=O)c3ccccc3)C[C@@H](C#N)[C@H]2C1" please.
# output > 100 µM (inactive)

# input Report GI50 for "C[Si](C)(C)C(Sc1ccccc1)(Sc1ccccc1)Sc1ccccc1" please.
# output 52.5 µM (inactive)

###

- Tested on: SNB-78
- Experimental Details: NCI tumour cell line growth inhibition, 48 h
Activity calls are given as the source filed them. Cut-off read from the data, not from the text of the source: active = GI50 up to about 1.1 µM and inactive = higher.
Would you mind answering with one of these outcomes? active, inactive

# input Can you look up the reported call for O=C(O)CCC(=O)OCN1C(=O)C2C3C=CC(C2C1=O)C1C2C(=O)N(COC(=O)CCC(=O)O)C(=O)C2C31 (centres undefined) for me?
# output inactive

# input Can you look up the reported call for "Nc1nnc(NC(=O)C2=NS(=O)(=O)c3cc(S(N)(=O)=O)c(Cl)cc3N2)[nH]1" for me?
# output inactive

# input Can you look up the reported call for "CCOc1ccc2nc(NC(=O)c3c/c(=N\NC(=O)C[N+](C)(C)C)c4ccc(O)cc4o3)sc2c1" for me?
# output inactive

# input Can you look up the reported call for "COc1ccc2occ(CCC(=O)O)c2c1" for me?
# output inactive

# input Can you look up the reported call for "Cn1cnc([N+](=O)[O-])c1Sc1nccn1-c1cccc2ccccc12" for me?
# output inactive

# input Can you look up the reported call for "COC(=O)c1c2cccccc-2c(Cc2c3cccccc-3c(C(=O)OC)c2O)c1O" for me?
# output inactive

# input Can you look up the reported call for CCOC(=O)C1(C)CCC(C(C(=O)O)C(=O)O)CC1=O (centres undefined) for me?
# output inactive

# input Can you look up the reported call for COC(=O)[C@]1(C)CCC[C@]2(C)C3CC4OOC3(C=C4C(C)(C)O)CCC21 (some centres undefined) for me?
# output inactive

# input Can you look up the reported call for Cc1ccc2oc(=O)c3c(O)c4cccc(OC5OC(C)C6O[C@@H](c7ccccc7)OC6C5OC5OC(C)C(O)C(O)C5O)c4c4oc(=O)c1c2c34 (some centres undefined) for me?
# output active

###

- Test system: RPMI-8226
- Experimental Details: NCI tumour cell line growth inhibition, 48 h
Active and inactive are the calls of the source. Cut-off read from the data, not from the text of the source: active = GI50 up to about 1.1 µM and inactive = higher.
Would you mind answering with one of these outcomes? active, inactive

# input Can you look up the reported call for "O=[N+]([O-])c1ccc(-c2ccc([C@H]3CC(c4cc(F)c(Cl)cc4Cl)=NN3)o2)cc1" for me?
# output inactive

# input Can you look up the reported call for "COc1c(C)c2c(c3c1c(=O)c1ccccc1n3C)C=CC(C)(C)O2" for me?
# output inactive

# input Can you look up the reported call for "O=C1C(Br)=CC2(C=C1Br)CCNC1=C2C(=O)c2ncccc2C1=O" for me?
# output active

# input Can you look up the reported call for "Cn1cnc([N+](=O)[O-])c1Sc1nccn1-c1cccc2ccccc12" for me?
# output inactive

# input Can you look up the reported call for O=C(CC1(O)C(=O)Nc2c(Cl)cc(Cl)cc21)c1ccc2ccccc2c1 (centres undefined) for me?
# output inactive

# input Can you look up the reported call for CCOC(=O)C1=C(C)C2C3C(=O)NC(=O)C3C1(C)C1C(=O)NC(=O)C21 (centres undefined) for me?
# output inactive

# input Can you look up the reported call for CC(=O)Nc1ccc(C(=O)NN2C(=O)CSC2c2ccc(O)cc2)cc1 (centres undefined) for me?
# output inactive

# input Can you look up the reported call for "CCOc1cc2c(cc1OC)c[n+](C)c1c3cc(OC)c(OC)cc3ccc21" for me?
# output inactive

# input Can you look up the reported call for CCCC1NC(C#N)(C#N)C(CCC)NC1(C#N)C#N (centres undefined) for me?
# output active

###

- System: A549
- Experimental Details: NCI tumour cell line growth inhibition, 48 h
Active and inactive are the calls of the source. Cut-off read from the data, not from the text of the source: active = GI50 up to about 1.1 µM and inactive = higher.
Would you mind answering with one of these outcomes? active, inactive

# input Can you look up the reported call for "CC(=O)Oc1ccc2cc(Oc3cc(Cl)c(Cl)cc3Cl)c(=O)oc2c1" for me?
# output inactive

# input Can you look up the reported call for C[C@]12CCC3C4=C(CCC3C1CCC2=O)C(=O)[C@H]1O[C@H]1C4=O (stereo partly drawn) for me?
# output inactive

# input Can you look up the reported call for Nc1nc(N)c2nc(CNc3ccc(C(=O)NC(CCCCNC(=O)c4ccccc4C(=O)O)C(=O)O)cc3)cnc2n1 (stereo not drawn) for me?
# output active

# input Can you look up the reported call for N#CCCN(CCC#N)c1ccc(C(Sc2ccccc2)C(NC(=O)c2cc([N+](=O)[O-])ccc2Cl)C(=O)Sc2ccccc2)cc1 (stereo not drawn) for me?
# output inactive

# input Can you look up the reported call for CC(C)Cc1ccc(C(C)/C=C2\CCC(CN3CCCC3)C2=O)cc1 (stereo not drawn) for me?
# output inactive

# input Can you look up the reported call for "Cn1cc(NC(=O)Nc2cc(C(=O)Nc3cc(C(=O)Nc4cc(S(=O)(=O)O)c5cc(S(=O)(=O)O)cc(S(=O)(=O)O)c5c4)n(C)c3)n(C)c2)cc1C(=O)Nc1cc(C(=O)Nc2cc(S(=O)(=O)O)c3cc(S(=O)(=O)O)cc(S(=O)(=O)O)c3c2)n(C)c1" for me?
# output inactive

# input Can you look up the reported call for "O=C1/C(=C(/Br)I)c2ccccc2-c2ccccc21" for me?
# output inactive

# input Can you look up the reported call for "Cc1cc(C)c2c(O)cc(-c3cccc(F)c3)nc2n1" for me?
# output active

###

- Test system: SNB-75
- Experimental Details: NCI tumour cell line growth inhibition, 48 h
Calls of active or inactive are those of the source. Rule as the data show it: active = GI50 up to about 1.1 µM and inactive = higher.
Would you mind answering with one of these outcomes? 1 (yes) (active), 0 (no) (inactive)

# input Can you look up the reported call for C/C(=N\N)C(CN(C)C)C(c1ccccc1)c1c(O)c2ccccc2oc1=O (configuration not stated) for me?
# output 0 (no)

# input Can you look up the reported call for "O=C(O)c1ccccc1Sc1ccccc1[N+](=O)[O-]" for me?
# output 0 (no)

# input Can you look up the reported call for "CCOC(=O)CC(=O)Nc1cccc2nc[nH]c12" for me?
# output 1 (yes)

# input Can you look up the reported call for "CCN(CC)C(=S)SCC(=O)Nc1nc2c(s1)CCCC2" for me?
# output 0 (no)

# input Can you look up the reported call for CCOC(=O)C(=O)C(C#N)c1ccc(Cl)cc1 (configuration not stated) for me?
# output 0 (no)

# input Can you look up the reported call for "Cc1cn(Cc2ccccc2CCl)c(=O)[nH]c1=O" for me?
# output 0 (no)

# input Can you look up the reported call for "C/C(=N\Nc1nc2ccccc2s1)c1cccnn1" for me?
# output 0 (no)

# input Can you look up the reported call for "CCOC(=O)C1(F)S(=O)(=O)OCCOS1(=O)=O" for me?
# output 0 (no)

# input Can you look up the reported call for CC1Cc2c(N)nc(NN)nc2NC1=O (configuration not stated) for me?
# output 0 (no)

# input Can you look up the reported call for "COc1ccc(Nc2nc3c(N)cc(C(F)(F)F)cc3nc2-c2ccccc2)cc1OC" for me?
# output 0 (no)

# input Can you look up the reported call for "Cc1cccc(NC(=O)c2cccc([N+](=O)[O-])c2O)c1C" for me?
# output 0 (no)

# input Can you look up the reported call for "CC[n+]1[b-](C(C)(C)C)n(/N=C/C(C)(C)C)[b-](C(C)(C)C)[n+]1CC" for me?
# output 0 (no)
